assay.system: Albumin (Bos taurus, UniProt P02769)
Sequence (P02769 whole entry): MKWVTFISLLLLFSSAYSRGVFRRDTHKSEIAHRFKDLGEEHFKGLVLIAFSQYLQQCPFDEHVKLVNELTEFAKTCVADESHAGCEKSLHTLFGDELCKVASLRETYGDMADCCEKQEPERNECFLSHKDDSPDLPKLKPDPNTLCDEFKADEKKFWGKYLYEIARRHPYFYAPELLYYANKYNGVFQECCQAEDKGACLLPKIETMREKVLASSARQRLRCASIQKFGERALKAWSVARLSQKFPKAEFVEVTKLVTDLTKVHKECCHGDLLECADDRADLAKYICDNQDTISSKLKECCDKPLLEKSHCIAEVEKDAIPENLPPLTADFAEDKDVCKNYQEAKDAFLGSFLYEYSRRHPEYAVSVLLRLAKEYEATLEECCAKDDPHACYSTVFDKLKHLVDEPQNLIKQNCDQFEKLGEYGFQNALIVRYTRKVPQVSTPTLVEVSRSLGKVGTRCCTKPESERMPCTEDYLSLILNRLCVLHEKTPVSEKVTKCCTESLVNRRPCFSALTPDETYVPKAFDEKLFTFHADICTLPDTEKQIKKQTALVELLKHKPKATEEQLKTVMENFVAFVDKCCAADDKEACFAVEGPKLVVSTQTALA
assay.name: Binding affinity to Bos taurus (bovine) serum albumin after 5 min at 25 degC by Stern-Volmer plot analysis
Format: ADME
particulars: cattle, isolated protein
Could you label it true (1) if measured KSV is 100 ×10³ /M or higher, and false (0) otherwise?

Illustrative cases are given below, each with its answer.
# compound, group
measured = [
    ("CCCCCCCC(=O)CC(O)S(=O)(=O)[O-].[Na+] (stereo not given) [OCTANOYL ACETAL SODIUM SULFITE]", "true (1)"),
    ("CCCCCCCCCCCC(=O)CC(O)S(=O)(=O)[O-].[Na+] (stereo not given) [DODECANOYL ACETAL SODIUM SULFITE]", "true (1)"),
    ("CCCCCC(=O)CC(O)S(=O)(=O)[O-].[Na+] (stereo not given) [HEXANOYL ACETAL SODIUM SULFITE]", "false (0)"),
    ("CCCCCCCCCC(=O)CC(O)S(=O)(=O)[O-].[Na+] (stereo not given) [SODIUM HOUTTUYFONATE]", "true (1)"),
]

Moving on to another compound below.
Inquiry: Given CCCCCCCCCCCCCC(=O)CC(O)S(=O)(=O)[O-].[Na+] (stereo not given) [TETRADECANOYL ACETAL SODIUM SULFITE] , state whether its KSV is at least 100 ×10³ /M.
Reply text: true (1)

---

assay.system: UniProt:P02769
assay.name: Binding affinity to Bos taurus (bovine) serum albumin after 5 min at 25 degC by Stern-Volmer plot analysis
Type: ADME
particulars: cattle, isolated protein
Please assign not satisfied whenever Kq is at or above 10 ×10¹² /M/s, and satisfied whenever it is below.

# compound, group
measured = [
    ("CCCCCC(=O)CC(O)S(=O)(=O)[O-].[Na+] (stereo not given) [HEXANOYL ACETAL SODIUM SULFITE]", "satisfied"),
    ("CCCCCCCCCCCCCC(=O)CC(O)S(=O)(=O)[O-].[Na+] (stereo not given) [TETRADECANOYL ACETAL SODIUM SULFITE]", "not satisfied"),
    ("CCCCCCCC(=O)CC(O)S(=O)(=O)[O-].[Na+] (stereo not given) [OCTANOYL ACETAL SODIUM SULFITE]", "not satisfied"),
    ("CCCCCCCCCCCC(=O)CC(O)S(=O)(=O)[O-].[Na+] (stereo not given) [DODECANOYL ACETAL SODIUM SULFITE]", "not satisfied"),
]

Inquiry: Dear colleague, could you confirm whether Kq of CCCCCCCCCC(=O)CC(O)S(=O)(=O)[O-].[Na+] (stereo not given) [SODIUM HOUTTUYFONATE] falls below 10 ×10¹² /M/s? Thanks.
Reply text: not satisfied

---

assay.system: UniProt:P02769
assay.name: Binding affinity to Bos taurus (bovine) serum albumin assessed as decrease in decrease in absorption at 50 uM after 5 min by UV-Vis spectrophotometric analysis
Assay type: ADME
Design: scale not given: the % may be the effect or the level left
particulars: cattle, isolated protein
As shown below, each of these molecules has a reported Activity value.
// return numeric value only (unit: %, not printed)

Example entries and their recorded answers appear below.
# molecule, assay.system, Activity [%]
measured = [
    ("CCCCCCCCCCCCCC(=O)CC(O)S(=O)(=O)[O-].[Na+] (stereo not given) [TETRADECANOYL ACETAL SODIUM SULFITE]", "UniProt:P02769", 90),
    ("CCCCCCCCCC(=O)CC(O)S(=O)(=O)[O-].[Na+] (stereo not given) [SODIUM HOUTTUYFONATE]", "UniProt:P02769", 90),
    ("CCCCCCCCCCCC(=O)CC(O)S(=O)(=O)[O-].[Na+] (stereo not given) [DODECANOYL ACETAL SODIUM SULFITE]", "UniProt:P02769", 90),
    ("CCCCCCCC(=O)CC(O)S(=O)(=O)[O-].[Na+] (stereo not given) [OCTANOYL ACETAL SODIUM SULFITE]", "UniProt:P02769", 50),
]

# context switch: different molecule, same Activity
Inquiry: Answer with reported Activity of CCCCCC(=O)CC(O)S(=O)(=O)[O-].[Na+] (stereo not given) [HEXANOYL ACETAL SODIUM SULFITE]
Reply text: 50

Provenance of the data: ChEMBL document CHEMBL3044606
